Target: HLA-A*1101 (purified HLA class I molecule) (human)
Assay: inhibition of 125I probe peptide binding to purified HLA; ratio to standard peptide
The following binders are listed with their measured relative binding ratio values.

Known relative binding ratio results, listed for orientation:
>>> reading("CLLDHVRENR (also called Her2/neu.805 (10-mer)) [HER2/neu peptide, position 805, 10 amino acids]")
"0.0001 ratio (IC50 standard / IC50 test)"
>>> reading("CVARCPSGVK (also called Her2/neu.596 (10-mer)) [HER2/neu peptide, position 596, 10 amino acids]")
"0.0042 ratio (IC50 standard / IC50 test)"
>>> reading("DVRPQPPSPR (also called Her2/neu.1144 (10-mer)) [HER2/neu peptide, position 1144, 10 amino acids]")
"0.0001 ratio (IC50 standard / IC50 test)"
>>> reading("ALESILRRR (also called Her2/neu.890 (9-mer)) [HER2/neu peptide, position 890, 9 amino acids]")
"0.0006 ratio (IC50 standard / IC50 test)"
>>> reading("ETEYHADGGK (also called Her2/neu.874 (10-mer)) [HER2/neu peptide, position 874, 10 amino acids]")
"0.0001 ratio (IC50 standard / IC50 test)"
>>> reading("GMSYLEDVR (also called Her2/neu.832 (9-mer)) [HER2/neu peptide, position 832, 9 amino acids]")
"0.0002 ratio (IC50 standard / IC50 test)"
>>> reading("DLAARNVLVK (also called Her2/neu.845 (10-mer)) [HER2/neu peptide, position 845, 10 amino acids]")
"0.0007 ratio (IC50 standard / IC50 test)"
>>> reading("AMPNQAQMR (also called Her2/neu.705 (9-mer)) [HER2/neu peptide, position 705, 9 amino acids]")
"0.0006 ratio (IC50 standard / IC50 test)"

# evaluate next
-- ask Reported relative binding ratio, binder ALTLIDTNR (also called Her2/neu.180 (9-mer)) [HER2/neu peptide, position 180, 9 amino acids] : ____
-- reply 0.0005 ratio (IC50 standard / IC50 test)
